# credit: the supplement of paper PMC7411054

Test system: HepG2-CANX-COX4
MEASUREMENT PROTOCOL: lowest phenotypically active concentration; higher = less potent
CONDITION LABEL: treatment time: 24 h
MEASURE: lowest phenotypically active concentration (µM)
// return numeric value only (unit: µM, not printed)

stdin: Lab note: need lowest phenotypically active concentration for `COc1cc(N2CCN(C)CC2)ccc1Nc1nccc(-c2cn(C)c3cnccc23)n1` on HepG2-CANX-COX4, anyone have it?
stdout: 1

stdin: Cool, now `CNC(=O)c1cc(Oc2ccc(NC(=O)Nc3ccc(Cl)c(C(F)(F)F)c3)c(F)c2)ccn1`
stdout: 3

stdin: Again, but for OC[C@H]1O[C@@H](n2cnc3c(NCc4ccco4)ncnc32)[C@H](O)[C@@H]1O [Kinetin riboside]
stdout: 1

---

Test system: HepG2-TP53BP1-CLTA
MEASUREMENT PROTOCOL: lowest phenotypically active concentration; higher = less potent
CONDITION LABEL: treatment time: 24 h
MEASURE: lowest phenotypically active concentration

stdin: Given the entry `COc1ccc2[nH]c(C(=O)c3ccccc3)cc2c1` , report its measured lowest phenotypically active concentration.
stdout: ≤ 0.3 µM

stdin: Try this molecule next: `Cc1cc(Nc2nc(N[C@@H](C)c3ncc(F)cn3)ncc2Cl)n[nH]1`
stdout: ≤ 0.3 µM

stdin: Can you handle `CC(C)(C)c1nc(-c2cccc(NS(=O)(=O)c3c(F)cccc3F)c2F)c(-c2ccnc(N)n2)s1` next?
stdout: ≤ 0.3 µM

stdin: // next record `COc1c(C)cnc(Cn2cc(C#CCC(C)(C)O)c3c(Cl)nc(N)nc32)c1C`
stdout: ≤ 0.3 µM

stdin: Same question, `O=C(CCCCCN1C(=O)c2cccc3cccc(c23)C1=O)NO` this time
stdout: ≤ 0.3 µM

stdin: Also need `O=C(NOCC1CC1)c1ccc(F)c(F)c1Nc1ccc(I)cc1Cl` , thanks.
stdout: ≤ 0.3 µM

stdin: What do you get for `Cc1cc(Nc2cc(N3CCN(C)CC3)nc(Sc3ccc(NC(=O)C4CC4)cc3)n2)[nH]n1` ?
stdout: ≤ 0.3 µM

stdin: What do you have for `C/C=C1\NC(=O)[C@H]2CSSCCC=C[C@H](CC(=O)N[C@H](C(C)C)C(=O)N2)OC(=O)[C@H](C(C)C)NC1=O` ?
stdout: ≤ 0.3 µM

stdin: Next record, please: `Nc1ccc(-c2ccc3ncc4ccc(=O)n(-c5cccc(C(F)(F)F)c5)c4c3c2)cn1`
stdout: ≤ 0.3 µM

stdin: Repeat for the following molecule: `Nc1ccn([C@@H]2O[C@H](CO)[C@@H](O)[C@@H]2O)c(=O)n1`
stdout: ≤ 0.3 µM

---

Test system: HepG2-ACTB-RAB5A
MEASUREMENT PROTOCOL: lowest phenotypically active concentration; higher = less potent
CONDITION LABEL: treatment time: 24 h
Answer each item with its documented lowest phenotypically active concentration.
Provide only the numeric value, understood in µM.

stdin: # input molecule: CC(CN(C)C)CN1c2ccccc2CCc2ccccc21 (stereo not given) ; wanted: its lowest phenotypically active concentration
stdout: 9

stdin: Also `CC(C)(C)c1cc(NC(=O)Nc2ccc(-c3cn4c(n3)sc3cc(OCCN5CCOCC5)ccc34)cc2)no1` , if possible.
stdout: 9

stdin: // next record CN(C)CC(O)Cn1c2ccc(Br)cc2c2cc(Br)ccc21 (stereo not given)
stdout: 3

stdin: Also check `N#C/C(=C/c1ccc(-c2cc(Cl)ccc2Cl)o1)C(=O)Nc1cccc2ncccc12`
stdout: 3

stdin: // query: `O[C@H](CNC[C@H](O)[C@@H]1CCc2cc(F)ccc2O1)[C@@H]1CCc2cc(F)ccc2O1`
stdout: 3
